systemTested: GDP-bound KRAS protein (aa 1-169), containing both G12D and C118A amino acid substitutions (Homo sapiens (Human), UniProt P01116, C118A/G12D)
Sequence (P01116 other isoform, or with tags, fused parts or gaps G12D/C118A): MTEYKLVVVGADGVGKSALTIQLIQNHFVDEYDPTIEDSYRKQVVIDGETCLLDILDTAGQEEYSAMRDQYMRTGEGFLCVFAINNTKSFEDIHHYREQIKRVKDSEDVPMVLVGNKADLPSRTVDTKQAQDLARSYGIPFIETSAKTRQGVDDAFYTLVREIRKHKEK
procedureSummary: KRAS G12D Coupled Nucleotide Exchange Assay
Format: biochemical
recordedConditions: read-out: KRAS G12D Coupled Exchange IC50
// assign Criterion met if IC50 falls strictly below 100 nM, else Criterion not met (ties count as Criterion not met)

compound: O=C1CCCOc2ccc3[nH]ncc3c2-c2ncc3c(nc(OC[C@@]45CCCN4C[C@H](F)C5)nc3c2F)N2CCC[C@H](C2)O1 [Example 30]
classification: Criterion not met
//
compound: O=C1CCCCc2c(Cl)cc3[nH]ncc3c2-c2ncc3c(nc(OC[C@@]45CCCN4C[C@H](F)C5)nc3c2F)N2CCOCC(C1)C2 (mixture of isomers) [Example 230]
classification: Criterion met
//
compound: Cc1cc2[nH]ncc2c2c1CCCCC(=O)N[C@@H]1CN(C[C@@H]3C[C@@H]31)c1nc(OC[C@@]34CCCN3C[C@H](F)C4)nc3c(F)c-2ncc13 [Example 170]
classification: Criterion not met
//
compound: O[C@@H]1c2ncc(o2)CCc2c(Cl)cc3[nH]ncc3c2-c2ncc3c(nc(OC[C@@]45CCCN4C[C@H](F)C5)nc3c2F)N2CCC[C@@H]1C2 [Example 233]
classification: Criterion met
//
compound: Cc1cc2[nH]ncc2c2c1CCOC(=O)O[C@H]1C[C@@]3(CCCN(C3)c3nc(OC[C@@]45CCCN4C[C@H](F)C5)nc4c(F)c-2ncc34)C1 [Example 194]
classification: Criterion met

Next compound, please.
Qu. Say whether its IC50 is strictly beneath 100 nM. Entry: Fc1ccc2cccc3c2c1CCOCC[C@@H]1CCCN(C1)c1nc(OC[C@@]24CCCN2C[C@H](F)C4)nc2c(F)c-3ncc12 [Example 223]
Ans. Criterion not met

###

systemTested: GDP-bound KRAS protein (aa 1-169), containing both G12D and C118A amino acid substitutions (Homo sapiens (Human), UniProt P01116, C118A/G12D)
procedureSummary: KRAS G12D Coupled Nucleotide Exchange Assay
Type: biochemical
recordedConditions: read-out: KRAS G12D Coupled Exchange IC50
IC50 overview
Report the value in nM with no unit label.

molecule: Cc1cc2[nH]ncc2c2c1CCCOC(=O)C[C@@H]1CCCN(C1)c1nc(OC[C@@]34CCCN3C[C@H](F)C4)nc3c(F)c-2ncc13
displayUnit: nM
IC50: 3

molecule: O=C1COCCCc2c(Cl)cc3[nH]ncc3c2-c2ncc3c(nc(OC[C@@]45CCCN4C[C@H](F)C5)nc3c2F)N2CCC[C@H](C2)O1 [Example 37, bis(2,2,2-trifluoroacetate)]
displayUnit: nM
IC50: 4

molecule: Cc1cc2[nH]ncc2c2c1CCCC(F)C(=O)N[C@@H]1CCCCN(C1)c1nc(OC[C@@]34CCCN3C[C@H](F)C4)nc3c(F)c-2ncc13 (single isomer, unassigned) [Example 160]
displayUnit: nM
IC50: 3

molecule: Cc1cc2[nH]ncc2c2c1CCCOC(=O)O[C@@H]1C[C@H](F)CN(C1)c1nc(OC[C@@]34CCCN3C[C@H](F)C4)nc3c(F)c-2ncc13 (racemic)
displayUnit: nM
IC50: 36

molecule: CN1CCC[C@H]1COc1nc2c3cnc(c(F)c3n1)-c1c(c(Cl)cc3[nH]ncc13)CCCOC(=O)O[C@]1(CF)COCCN2C1
displayUnit: nM
IC50: 2

Qu. IC50 for O=C1N[C@@H]2CCCCN(C2)c2nc(OC[C@@]34CCCN3C[C@H](F)C4)nc3c(F)c(ncc23)-c2c3c(cc4[nH]ncc24)CC[C@H]3CCO1 ?
Ans. 3

###

systemTested: GDP-bound KRAS protein (aa 1-169), containing both G12D and C118A amino acid substitutions (Homo sapiens (Human), UniProt P01116, C118A/G12D)
procedureSummary: KRAS G12D Coupled Nucleotide Exchange Assay
Format: biochemical
recordedConditions: read-out: KRAS G12D Coupled Exchange IC50
Consider the cut-off 10 nM. If the recorded IC50 is strictly smaller, the label is YES; if not, the label is NO.

molecule: Cc1cc2[nH]ncc2c2c1CCCOC(=O)O[C@@H]1CCCCN(C1)c1nc(OC[C@@]34CCCN3C[C@H](F)C4)nc3c(F)c-2ncc13 [Example 98]
classification: YES

Qu. Dear reviewer, please state whether C[C@@H]1CN(c2nc3c4cnc(c(F)c4n2)-c2c(c(Cl)cc4[nH]ncc24)CCCOC(=O)O[C@@H]2COCCN3C2)CCN1 [Example 348] has IC50 strictly beneath 10 nM.
Ans. YES

Qu. Cool, now Cc1cc2[nH]ncc2c2c1CCCCC(=O)N[C@]1(C)CCCN(C1)c1nc(OC[C@@]34CCCN3C[C@H](F)C4)nc3c(F)c-2ncc13 [Example 20, bis(2,2,2-trifluoroacetate)]
Ans. NO

Qu. Likewise for C[C@@]12COCCN(C1)c1nc(OC[C@@]34CCCN3C[C@H](F)C4)nc3c(F)c(ncc13)-c1cc(O)cc3ccc(F)c(c13)CCOC(=O)O2 [Example 345] ?
Ans. YES

Qu. # repeat for CN1C(=O)COCC[C@@H]2CCc3cc4[nH]ncc4c(c32)-c2ncc3c(nc(OC[C@@]45CCCN4C[C@H](F)C5)nc3c2F)N2CCC[C@@H]1C2 [Example 279]
Ans. NO

Qu. Proceed to Cc1cc2[nH]ncc2c2c1CCOC(=O)O[C@H]1C[C@@]3(CCCN(C3)c3nc(OC[C@@H]4C[C@@H](F)CN4C)nc4c(F)c-2ncc34)C1 [Example 321]
Ans. YES

Qu. Repeat with CN1C(=O)OCCCc2c(Cl)cc3[nH]ncc3c2-c2ncc3c(nc(OC[C@@]45CCCN4C[C@H](F)C5)nc3c2F)N2C[C@@H](O)C[C@@H]1C2 [Example 286]
Ans. NO

###

The compounds listed here are annotated with their IC50.
systemTested: His-tagged KRAS G12D protein (Homo sapiens (Human), UniProt P01116, G12D)
Sequence (P01116 other isoform, or with tags, fused parts or gaps G12D): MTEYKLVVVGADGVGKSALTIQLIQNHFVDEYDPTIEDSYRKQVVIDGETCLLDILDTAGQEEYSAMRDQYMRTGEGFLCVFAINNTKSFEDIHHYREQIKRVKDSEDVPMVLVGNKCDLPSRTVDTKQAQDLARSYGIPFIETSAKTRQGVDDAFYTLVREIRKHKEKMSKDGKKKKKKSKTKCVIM
procedureSummary: KRAS G12D TR-FRET Assay
Assay type: binding
recordedConditions: read-out: KRAS G12D Binding IC50
Structures can show the parent of a compound that is named as a salt.
Unit nM implied. Number only.

Take a look at these entries with their results.
compound: Cc1cc2[nH]ncc2c2c1CCCOC(=O)O[C@H]1CN(CC[C@H]1C)c1nc(OC[C@@]34CCCN3C[C@H](F)C4)nc3c(F)c-2ncc13
displayUnit: nM
quantitativeResult: 10
--
compound: C[C@@]12CCCN(C1)c1nc(OC[C@@]34CCCN3C[C@H](F)C4)nc3c(F)c(ncc13)-c1cc(O)cc3c1[C@@H](CCCC(=O)N2)CCC3 [Example 27, 2,2,2-trifluoroacetate salt]
displayUnit: nM
quantitativeResult: 7
--
compound: Cc1cc2[nH]ncc2c2c1/C=C/COC(=O)O[C@@H]1CCCN(C1)c1nc(OC[C@@]34CCCN3C[C@H](F)C4)nc3c(F)c-2ncc13
displayUnit: nM
quantitativeResult: 93
--
compound: CN1C(=O)OCCCc2c(Cl)cc3[nH]ncc3c2-c2ncc3c(nc(OC[C@@]45CCCN4C[C@H](F)C5)nc3c2F)N2CCC[C@@H]1C2
displayUnit: nM
quantitativeResult: 3
--
compound: Cc1cc2[nH]ncc2c2c1CCOC(=O)O[C@H]1C[C@@]3(CCCN(C3)c3nc(OC[C@@]45CCCN4C[C@H](F)C5)nc4c(F)c-2ncc34)C1
displayUnit: nM
quantitativeResult: 5

Qu. Which IC50 is reported for this compound? C[C@@]12COCCN(C1)c1nc(OC[C@@]34CCCN3C[C@H](F)C4)nc3c(F)c(ncc13)-c1cc(O)cc3ccc(F)c(c13)CCOC(=O)O2
Ans. 3

Qu. Now try Fc1c2ncc3c(nc(OC[C@@]45CCCN4C[C@H](F)C5)nc13)N1CCOC[C@@H](C1)c1cnn(n1)CCCc1c(Cl)cc3[nH]ncc3c1-2 .
Ans. 8070

Qu. Same question, OC1CCCCc2c(Cl)cc3[nH]ncc3c2-c2ncc3c(nc(OC[C@@]45CCCN4C[C@H](F)C5)nc3c2F)N2CCOCC(C1)C2 (stereo partly drawn) this time
Ans. 240

Qu. Can you handle Cc1cc2[nH]ncc2c2c1[C@H]1C[C@@H]1COC(=O)O[C@@H]1CCCN(C1)c1nc(OC[C@@]34CCCN3C[C@H](F)C4)nc3c(F)c-2ncc13 (racemic) next?
Ans. 19

Qu. Follow-up entry: C[C@@]12CCCN(C1)c1nc(OC[C@@]34CCCN3C[C@H](F)C4)nc3c(F)c(ncc13)-c1c(c(Cl)cc3[nH]ncc13)CCCOC(=O)O2
Ans. 4

Qu. How about this compound: Cc1cc2[nH]ncc2c2c1CCCCC(=O)N(C)[C@@H]1CCCN(C1)c1nc(OC[C@@]34CCCN3C[C@H](F)C4)nc3c(F)c-2ncc13
Ans. 7

Qu. Follow-up entry: Fc1c2ncc3c(nc(OC[C@@]45CCCN4C[C@H](F)C5)nc13)N1CCCC(C1)c1cnc(o1)CCCc1c(Cl)cc3[nH]ncc3c1-2 (stereo partly drawn)
Ans. 10
